Overview of recorded mean fluorescence intensity for various binders
- TEST SYSTEM: his-labeled human IL-13 (immunogen A) (human) (UniProt P35225)
- ASSAY OVERVIEW: FACS blocking, biotin-IL-13 on IL-13Ra2 HEK293 cells; antibody at 0.002 nM
MEASUREMENT TYPE: mean fluorescence intensity

BINDER: c35E2C3 (mouse-human chimeric IL-13 antibody) (antibody, V domains shown) VH: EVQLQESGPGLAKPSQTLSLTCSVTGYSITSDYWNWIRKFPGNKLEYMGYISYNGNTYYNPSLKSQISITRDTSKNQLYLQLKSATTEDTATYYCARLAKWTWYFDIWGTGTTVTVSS VL: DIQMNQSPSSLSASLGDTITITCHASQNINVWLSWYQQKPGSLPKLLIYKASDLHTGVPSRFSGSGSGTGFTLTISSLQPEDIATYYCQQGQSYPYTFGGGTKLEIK
REPORTED VALUE: 99.1
--
BINDER: c29D9H8 (mouse-human chimeric IL-13 antibody) (antibody, V domains shown) VH: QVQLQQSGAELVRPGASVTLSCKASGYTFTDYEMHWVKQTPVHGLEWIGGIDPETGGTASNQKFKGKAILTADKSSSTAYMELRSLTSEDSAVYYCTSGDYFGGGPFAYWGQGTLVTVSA VL: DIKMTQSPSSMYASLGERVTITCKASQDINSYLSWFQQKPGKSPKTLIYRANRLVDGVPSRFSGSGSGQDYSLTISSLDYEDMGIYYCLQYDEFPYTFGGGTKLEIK
REPORTED VALUE: 101
--
BINDER: 29D9H8 (lead antibody, mouse hybridoma) (antibody, V domains shown, Mouse monoclonal antibody purified from hybridoma supernatant on Protein G) VH: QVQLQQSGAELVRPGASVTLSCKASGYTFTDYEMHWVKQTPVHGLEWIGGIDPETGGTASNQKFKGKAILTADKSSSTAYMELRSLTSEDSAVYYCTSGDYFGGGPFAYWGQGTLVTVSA VL: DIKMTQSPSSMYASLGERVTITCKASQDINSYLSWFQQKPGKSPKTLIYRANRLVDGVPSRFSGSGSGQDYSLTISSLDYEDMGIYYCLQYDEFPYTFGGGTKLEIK
REPORTED VALUE: 76.3
--
BINDER: c70F10A10 (mouse-human chimeric IL-13 antibody) (antibody, V domains shown) VH: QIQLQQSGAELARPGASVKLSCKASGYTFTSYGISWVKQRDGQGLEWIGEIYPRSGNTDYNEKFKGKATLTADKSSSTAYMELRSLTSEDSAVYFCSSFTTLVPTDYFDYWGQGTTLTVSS VL: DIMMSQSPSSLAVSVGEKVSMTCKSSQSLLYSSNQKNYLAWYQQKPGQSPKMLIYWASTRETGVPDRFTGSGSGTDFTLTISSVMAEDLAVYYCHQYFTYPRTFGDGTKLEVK
REPORTED VALUE: 97.5
--
BINDER: 35E2C3 (lead antibody, mouse hybridoma) (antibody, V domains shown, Mouse monoclonal antibody purified from hybridoma supernatant on Protein G) VH: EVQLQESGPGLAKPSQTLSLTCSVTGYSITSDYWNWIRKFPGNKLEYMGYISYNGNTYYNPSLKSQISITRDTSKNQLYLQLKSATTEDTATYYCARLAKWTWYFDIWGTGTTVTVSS VL: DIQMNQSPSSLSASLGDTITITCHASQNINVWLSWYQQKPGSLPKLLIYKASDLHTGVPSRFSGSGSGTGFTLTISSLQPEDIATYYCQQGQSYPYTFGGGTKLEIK
REPORTED VALUE: 76
